# measurement.notes: Cmax in Sprague-Dawley rat at 100 mg/kg, po using 1% methyl cellulose as vehicle
# Type: ADME, organism-based
# Design: dose 100 mg/kg, route oral
# run.parameters: in vivo
quantity.measured: Cmax (µM)
Respond with the bare value in µM.

Return Cmax for the following molecule: `CN(C)C(=O)C(=O)NC(C)(C)c1nc(C(=O)NCc2ccc(F)cc2)c(O)c(=O)n1C`
12

* * *

# measurement.notes: AUC in Sprague-Dawley rat at 3 mg/kg, po
# Format: ADME, organism-based
# Parameters: dose 3 mg/kg, route oral
# run.parameters: plasma
quantity.measured: AUC (nM·h)
Give a bare numeral; the unit nM·h is implied.

Output measured AUC for this item: `Cc1nnc(C(=O)NC(C)(C)c2nc(C(=O)NCc3ccc(F)cc3)c(O)c(=O)n2C)o1`
1000

Answer with reported AUC of `Cc1nnc(C(=O)NC(C)(C)c2nc(C(=O)NCc3ccc(F)cc3)c([O-])c(=O)n2C)o1.[Na+]`
1400

Please indicate AUC recorded for `CN(C)C(=O)C(=O)NC(C)(C)c1nc(C(=O)NCc2ccc(F)cc2)c([O-])c(=O)n1C.[Na+]`
2200

Report AUC for `CN(C)C(=O)C(=O)NC(C)(C)c1nc(C(=O)NCc2ccc(F)cc2)c(O)c(=O)n1C`
700

Output AUC of `Cc1nnc(C(=O)NC(C)(C)c2nc(C(=O)NCc3ccc(F)cc3)c([O-])c(=O)n2C)o1.[K+]`
1300
